Measured values drawn from patent US20210388087A1 for this set.

# System tested: T1, Human CD3eg linker (human)
# T1 construct: single-chain construct; also called recombinant human CD3
# T1 chain: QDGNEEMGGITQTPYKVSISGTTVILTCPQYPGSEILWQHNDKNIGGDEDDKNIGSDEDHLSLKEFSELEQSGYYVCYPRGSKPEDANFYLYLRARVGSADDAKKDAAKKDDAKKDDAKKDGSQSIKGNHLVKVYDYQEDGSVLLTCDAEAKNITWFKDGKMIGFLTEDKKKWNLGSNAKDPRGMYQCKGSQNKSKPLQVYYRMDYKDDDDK
# Protocol: SPR, vs unmutated H183/L072
We begin with a simple list: items and their reported fold change of affinity.
Kindly report the value followed by its unit.

>>> observed_measurement("dBBDu183H P100eN/dBBDu072L (antibody, name in Kabat numbering, V domains shown) VH: QVQLVESGGGLVQPGRSLRLSCAASGFTFSNAWMHWVRQAPGKGLEWVAQIKDKGNAYAAYYAPSVKGRFTISRDDSKNSIYLQMNSLKTEDTAVYYCHYVHYASASTVLNAFGVDAWGQGTTVTVSS VL: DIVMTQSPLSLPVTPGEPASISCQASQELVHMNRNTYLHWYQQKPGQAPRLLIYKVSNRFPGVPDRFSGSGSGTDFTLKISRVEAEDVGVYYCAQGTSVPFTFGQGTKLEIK")
"1.3 fold"

Q: Quick one: fold change of affinity of dBBDu183H Y94E/dBBDu072L (antibody, name in Kabat numbering, V domains shown) VH: QVQLVESGGGLVQPGRSLRLSCAASGFTFSNAWMHWVRQAPGKGLEWVAQIKDKGNAYAAYYAPSVKGRFTISRDDSKNSIYLQMNSLKTEDTAVYYCHEVHYASASTVLPAFGVDAWGQGTTVTVSS VL: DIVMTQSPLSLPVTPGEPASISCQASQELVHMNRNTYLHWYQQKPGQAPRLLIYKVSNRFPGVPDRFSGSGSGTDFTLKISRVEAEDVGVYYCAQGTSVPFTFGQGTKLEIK ?
A: 0 fold
